Target: T1, mouse MAdCAM expressed on cells (mouse, UniProt Q61826 22-405)
T1 construct: whole, on cells
T1 sequence (looked up): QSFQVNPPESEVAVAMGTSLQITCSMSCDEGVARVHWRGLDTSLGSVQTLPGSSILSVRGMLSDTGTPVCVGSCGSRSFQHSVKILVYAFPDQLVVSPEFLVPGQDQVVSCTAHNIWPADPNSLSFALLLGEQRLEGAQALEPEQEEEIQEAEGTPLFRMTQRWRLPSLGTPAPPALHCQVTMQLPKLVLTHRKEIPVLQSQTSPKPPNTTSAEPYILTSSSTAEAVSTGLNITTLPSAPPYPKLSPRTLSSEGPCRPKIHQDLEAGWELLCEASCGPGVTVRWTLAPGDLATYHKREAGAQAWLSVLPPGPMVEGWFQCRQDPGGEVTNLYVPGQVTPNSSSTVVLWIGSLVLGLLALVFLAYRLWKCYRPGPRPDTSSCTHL
Test: cell binding

binder | binding result
MAdCAM Antibody Table 2 Clone 43 (antibody, human IgG1, V domains shown) VH: QVQLVQSGAEVKKPGASVKVSCKASGYTFTSYGISWVRQAPGQGLEWMGWMHPKSGDTGLTQKFQGRVTMTRDTSTSTVYMELSSLRSEDTAVYYCARDTPYYYYGMDVWGQGTTVTVSS VL: DIQMTQSPSSLSASVGDRVTITCRASQSISSWLAWYQQKPGKAPKLLIYAASSLQSGVPSRFSGSGSGTDFTLTISSLQPEDFATYYCQQSYSVPITFGQGTKVEIK | no binding
MAdCAM Antibody Table 2 Clone 40 (antibody, human IgG1, V domains shown) VH: QVQLVQSGAEVKKPGASVKVSCKASGYTLTTWYMYWVRQAPGQGLEWMGWINPNRGATNYAQKFQGRVTMTRDTSTSTVYMELSSLRSEDTAVYYCAKGDLWGAMDVWGQGTLVTVSS VL: DIQMTQSPSSLSASVGDRVTITCRASDNIGSWLAWYQQKPGKAPKLLIYAASSLQSGVPSRFSGSGSGTDFTLTISSLQPEDFATYYCQQGYSTPPTFGQGTKVEIK | no binding
